Molecular target: ADAM15 (Homo sapiens)
Construct: FLAG (C); made in house; host or cells: Sf9 insect cells (baculovirus, pFastBac1)
Sequence (Q13444 213-414 limits assumed): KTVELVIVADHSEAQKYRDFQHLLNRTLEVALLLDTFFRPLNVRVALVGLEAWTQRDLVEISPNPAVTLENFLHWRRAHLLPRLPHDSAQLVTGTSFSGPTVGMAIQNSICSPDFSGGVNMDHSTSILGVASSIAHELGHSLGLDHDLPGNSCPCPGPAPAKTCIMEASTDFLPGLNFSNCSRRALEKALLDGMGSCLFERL
Assay: FRET peptide substrate screening, ADAM15
Type: biochemical
Design: key: from one star (*) to five stars (*****) to indicate weaker to more potent substrates respectively; from one star (*) to five stars (*****) to indicate weaker to more potent substrates respectively; from one star (*) to five stars (*****) to indicate weaker to more potent substrates respectively; from one star (*) to five stars (*****) to indicate weaker to more potent substrates respectively; (—) = no detectable activity
Settings: FRET peptide 20 uM, room temperature
Property Measured: Relative proteolytic activity ADAM15

- Substance: "X-KPAAFFRL-Z ({Edans‑E}-KPAAFFRL-{dabcyl‑K}) [CatE, FRET peptide substrate; X = Edans-E; Z = dabcyl-K]"
  Result: "*****"
- Substance: "X-KPAKFFRL-Z ({Edans‑E}-KPAKFFRL-{dabcyl‑K}) [CatEl, FRET peptide substrate; X = Edans-E; Z = dabcyl-K]"
  Result: "*****"
- Substance: "X-PPVAASSLRN-Z ({Edans‑E}-PPVAASSLRN-{dabcyl‑K}) [KL1, FRET peptide substrate; X = Edans-E; Z = dabcyl-K]"
  Result: "***"
- Substance: "Z-RPLGLAR-X ({dabcyl‑K}-RPLGLAR-{Edans‑E}) [Mat, FRET peptide substrate; X = Edans-E; Z = dabcyl-K]"
  Result: "***"

Given the entry Z-RGVVNASSRLAK-X ({dabcyl‑K}-RGVVNASSRLAK-{Edans‑E}) [KAS-1, FRET peptide substrate; X = Edans-E; Z = dabcyl-K] , report its measured Relative proteolytic activity ADAM15.
***

Given the entry X-PLAQAVRSSS-Z ({Edans‑E}-PLAQAVRSSS-{dabcyl‑K}) [TNFα, FRET peptide substrate; X = Edans-E; Z = dabcyl-K] , report its measured Relative proteolytic activity ADAM15.
***
